Test system: CEM cells HIV-1 protection, formazan growth assay
Test: NCI AIDS Antiviral Assay
Conditions: measured here: growth of uninfected CEM cells
Method: The ability of compounds to protect human CEM cells from HIV-1 infection is measured as a screen for new compounds capable of inhibiting the HIV virus. Five concentrations of drug were tested on uninfected and infected cells and cell growth was measured using a soluble formazan assay. […] Compounds that provided at least 50% protection were retested. Compounds that provided at least 50% protection on retest were listed as moderately active. […]
measurementKind: IC50 (µM)
Give the number; µM is assumed, so skip it.

{"columns": ["molecule", "assayedSystem", "measurementKind", "readoutNumber"],
 "data": [
  ["C#CCN(CC#C)C(=O)C(=O)c1c[nH]c2ccc(OC)cc12", "CEM cells HIV-1 protection, formazan growth assay", "IC50", 40.7],
  ["COC(=O)C(Cc1ccccc1)NP(=O)(O)OCC1OC(n2cc(F)c(=O)[nH]c2=O)CC1O (stereo unspecified)", "CEM cells HIV-1 protection, formazan growth assay", "IC50", 58.9]
]}

Consider now this further molecule.
O=C(CC12C3C4C1C1C2C3C41CC(=O)NO)NO (stereo unspecified) has a reported IC50 of 49

====

compounds and their reported pIC50
tested on: CEM cells HIV-1 protection, formazan growth assay; assay: NCI AIDS Antiviral Assay; details: measured here: growth of uninfected CEM cells
Scale explanation: pIC50 corresponds to minus log10 of a concentration expressed in moles per litre.

{"columns": ["compound", "readoutNumber"],
 "data": [
  ["CCCCN=C(OC1C=CCCC1)SC (stereo not drawn)", 3.81],
  ["O=C(N=Nc1ccc(Br)cc1)NNc1ccc(Br)cc1", 4.89],
  ["CC1CN=C(N(Cc2ccccc2)C(=O)Nc2ccc(Cl)c(Cl)c2)S1 (stereo not drawn)", 4.17]
]}

Field pIC50 (entry CCOC(=O)/C(=C\c1ccc2ccccc2c1)P(=O)(OCC)OCC ) reads 5.27

Lab note: measured pIC50 of CCOC(=O)c1no[n+]([O-])c1C(=O)OCC was 5.24

Recorded result, Cc1cc(-c2cccs2)oc(=O)c1NC(=O)c1ccccc1 , pIC50: 4.57

The recorded pIC50 for O=[N+]([O-])c1ccc2nc(-c3ccccc3[N+](=O)[O-])[nH]c2c1 is 4.61

pIC50 recorded for this compound, COc1ccc(-c2sc(/N=C/c3ccc(-c4ccccc4)cc3)c(C#N)c2C)cc1OC , is 4.52

====

system: CEM cells HIV-1 protection, formazan growth assay; test: NCI AIDS Antiviral Assay; settings: measured here: growth of uninfected CEM cells
Each entry below carries its recorded IC50.

Example entries and their recorded answers appear below.
{"columns": ["compound", "assayedSystem", "result"],
 "data": [
  ["COc1cc(C2C(=O)C(Cl)N2Nc2nc(C)cc(=O)[nH]2)cc(OC)c1OC (stereo not given)", "CEM cells HIV-1 protection, formazan growth assay", "9.77 µM"],
  ["Cn1c(SCc2ccc([N+](=O)[O-])cc2)nnc1C12CC3CC(CC(C3)C1)C2", "CEM cells HIV-1 protection, formazan growth assay", "110 µM"],
  ["C=CC[C@@]12CC(C=CC13OCCO3)OC(=O)[C@@H]2C", "CEM cells HIV-1 protection, formazan growth assay", "> 200 µM"]
]}

Quick note, IC50 for COc1cc2c(c([N+](=O)[O-])c1)NC(=O)C(C)S2 (stereo not given) landed at 49 µM

Reported IC50 for CCOC(=O)[C@@]12C(=O)[C@@H](C)CC[C@@H]1[C@@H](C)C[C@H]2C=C(C)C was 110 µM

Item: C/C=C(/C)C(=O)O[C@@H]1CCN2CC[C@H](COC(=O)/C(=C/C)CO)C12 (stereo not given in full) | IC50: 107 µM

In plain terms, C=C1SC(=Nc2c(C)cccc2C)N(c2nc(Cl)nc(Cl)n2)C12CCCCC2 has a documented IC50 of 162 µM

Cc1ccc(NC(=O)C(=O)C(C(=O)/C=C/c2ccccc2)C2OC(=O)c3ccccc32)c(C)c1 (stereo not given) has a reported IC50 of 63.1 µM

The recorded IC50 for CC(C)(C)NC1=NC(C(F)(F)F)(C(F)(F)F)NC(=O)N1 is 70.8 µM

GET /value?item= N#CNc1nc(N)c(-c2ccc(Cl)cc2)c(C(=O)Nc2nccs2)n1 &field=IC50 returns > 676 µM

The recorded IC50 for Cc1ccc(NC(=S)NNC(=O)c2cc(-c3ccccc3)nc3ccccc23)cc1C is 12.6 µM
